FYI, the data here is from the supplement of paper PMC10307832.

tested on: NCI-H1666; experiment: relative viability (nuclei count vs DMSO), 5 days (fraction); higher = more cells survive; conditions: first compound 0.03162 µM
Label TRUE when relative viability is strictly below 0.8; otherwise label FALSE.

Example cases with answers are listed next.
compound: O=c1cc(N2CCOCC2)oc2c(-c3cccc4c3sc3ccccc34)cccc12 + Nc1nc2[nH]cc(CCc3ccc(C(=O)N[C@@H](CCC(=O)O)C(=O)O)cc3)c2c(=O)[nH]1 [Pemetrexed] (partner 0.2 µM)
system: NCI-H1666
answer_label: FALSE

compound: O=c1cc(N2CCOCC2)oc2c(-c3cccc4c3sc3ccccc34)cccc12 + O=C(CCCCCCC(=O)Nc1ccccc1)NO [Vorinostat] (partner 1 µM)
system: NCI-H1666
answer_label: FALSE

compound: CCN(CC)CCCCNc1ncc2cc(-c3cc(OC)cc(OC)c3)c(NC(=O)NC(C)(C)C)nc2n1 + CC1(C)CCC(c2ccc(Cl)cc2)=C(CN2CCN(c3ccc(C(=O)NS(=O)(=O)c4ccc(N[C@H](CCN5CCOCC5)CSc5ccccc5)c(S(=O)(=O)C(F)(F)F)c4)cc3)CC2)C1 [Navitoclax] (partner 0.5 µM)
system: NCI-H1666
answer_label: FALSE

# ---- query compound ----
Take the compound O=c1cc(N2CCOCC2)oc2c(-c3cccc4c3sc3ccccc34)cccc12 + Cc1cc(Nc2cc(N3CCN(C)CC3)nc(Sc3ccc(NC(=O)C4CC4)cc3)n2)n[nH]1 [Tozasertib] (partner 0.1 µM) and say whether its relative viability is less than 0.8.
TRUE

###

test system: NCI-H23; test: relative viability (nuclei count vs DMSO), 5 days (fraction); higher = more cells survive; details: first compound 1 µM
measured_quantity: relative viability
Field format: numeric only.

Observe how each entry below is paired with its result.
compound: O=c1cc(N2CCOCC2)oc2c(-c3cccc4c3sc3ccccc34)cccc12 + CC1(C)CCC(c2ccc(Cl)cc2)=C(CN2CCN(c3ccc(C(=O)NS(=O)(=O)c4ccc(N[C@H](CCN5CCOCC5)CSc5ccccc5)c(S(=O)(=O)C(F)(F)F)c4)cc3)CC2)C1 [Navitoclax] (partner 0.5 µM)
relative viability: 0.777
//
compound: CCN(CC)CCCCNc1ncc2cc(-c3cc(OC)cc(OC)c3)c(NC(=O)NC(C)(C)C)nc2n1 + CS(=O)(=O)N1CCN(Cc2cc3nc(-c4cccc5[nH]ncc45)nc(N4CCOCC4)c3s2)CC1 [Pictilisib] (partner 1 µM)
relative viability: 0.435
//
compound: CCN(CC)CCCCNc1ncc2cc(-c3cc(OC)cc(OC)c3)c(NC(=O)NC(C)(C)C)nc2n1 + Nc1nc2[nH]cc(CCc3ccc(C(=O)N[C@@H](CCC(=O)O)C(=O)O)cc3)c2c(=O)[nH]1 [Pemetrexed] (partner 0.2 µM)
relative viability: 0.646
//
compound: CCN(CC)CCCCNc1ncc2cc(-c3cc(OC)cc(OC)c3)c(NC(=O)NC(C)(C)C)nc2n1 + Cc1cc(Nc2cc(N3CCN(C)CC3)nc(Sc3ccc(NC(=O)C4CC4)cc3)n2)n[nH]1 [Tozasertib] (partner 0.1 µM)
relative viability: 0.339

Please look at the following compound next.
Using the record for O=c1cc(N2CCOCC2)oc2c(-c3cccc4c3sc3ccccc34)cccc12 + CC(C)C[C@H](NC(=O)[C@H](Cc1ccccc1)NC(=O)c1cnccn1)B(O)O [Bortezomib] (partner 0.002 µM) , report its relative viability.
0.946
